Conditions: human, serum;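 note: acute human liver injury from clinical signs plus serum ALT or AST above 6 N or alkaline phosphatase above 1.7 N, covering cytolytic, cholestatic and mixed forms, value counts references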
Attribute measured: Hepatotoxicity (acute)

Compound: COc1ccc(C(=O)Nc2ccccc2CCC2CCCCN2C)cc1 (centres undefined) [ENCAINIDE]
Measured: 1

Compound: CN(C)CCOC(c1ccccc1)c1ccccc1 [DIPHENHYDRAMINE]
Measured: 0

Compound: COc1cccc2c1C(=O)c1c(O)c3c(c(O)c1C2=O)C[C@@](O)(C(=O)CO)C[C@@H]3O[C@H]1C[C@H](N)[C@H](O[C@@H]2CCCCO2)[C@H](C)O1 [PIRARUBICIN]
Measured: 0

I would be grateful if you could provide Hepatotoxicity (acute) for each of the following entries.
1. CCOC(Nc1ccc(C(=O)O)cc1)C(=O)c1ccc(-c2ccccc2)cc1 (centres undefined) [XENAZOIC ACID]
2. CCCCN1CCCCC1C(=O)Nc1c(C)cccc1C (centres undefined) [BUPIVACAINE]
3. CCCCC(CC)COC(=O)CC(C(=O)OCC(CC)CCCC)S(=O)(=O)O (centres undefined) [DOCUSATE]
4. COC(=O)C1=C(C)NC(C)=C(C(=O)OC(C)C)C1c1cccc2nonc12 (centres undefined) [ISRADIPINE]
5. CCOC(=O)n1ccn(C)c1=S [CARBIMAZOLE]

[2, 2, 0, 0, 18]

For the compound N=C(N)c1ccc(OCCCCCOc2ccc(C(=N)N)cc2)cc1 [PENTAMIDINE] , what Hepatotoxicity (acute) is on record?
4
